biological target: Mu-type opioid receptor (Mus musculus); assay: Antagonist activity at mouse brain homogenate MOP; assay type: functional, tissue-based
measuredMetric: pIC50
On this scale, pIC50 is minus log10 of a concentration expressed in M (mol/L).

query: Recorded pIC50 for C[C@@H](NC(=O)[C@@H](N)Cc1ccc(O)cc1)C(=O)N[C@@H](Cc1ccccc1)C(=O)NCC(=O)N[C@@H](Cc1ccc(O)cc1)C(=O)N1CCC[C@H]1C(=O)N[C@@H](CO)C(N)=O , please?
result: 9.12

* * *

target: Kappa-type opioid receptor (Cavia porcellus, UniProt P41144); test: Displacement of [3H]U69593 from guinea pig cerebellum KOP by competitive binding assay; type: tissue-based
pKi: −log10 of the molar value. Square brackets hold non-standard residues; d marks the D form. Peptide text beside a SMILES is read from it. Sar = CNCC(=O)O
measuredMetric: pKi

query: Recorded pKi for CN(CC(=O)O)C(=O)[C@H](Cc1ccccc1)NC(=O)[C@@H](CCCN=C(N)N)NC(=O)[C@@H](N)Cc1ccc(O)cc1 (H-Y[dR]F[Sar]-OH) , please?
result: < 5.00

* * *

molecular target: Delta-type opioid receptor (Homo sapiens, UniProt P41143); assay: Binding affinity to DOP (unknown origin)
Square brackets hold non-standard residues; d marks the D form. Peptide text beside a SMILES is read from it.
measuredMetric: pKi
On this scale, pKi is minus log10 of a concentration expressed in M (mol/L).

>>> assayresult("CC(C)(C)OC(=O)[C@H](Cc1ccccc1)NC(=O)[C@H](Cc1ccccc1)NC(=O)[C@@H]1CCCN1C(=O)[C@@H](N)Cc1ccc(O)cc1")
6.61
>>> assayresult("C[C@@H](NC(=O)[C@@H](N)Cc1ccc(O)cc1)C(=O)N[C@@H](Cc1ccccc1)C(=O)NCC(=O)N[C@@H](Cc1ccc(O)cc1)C(=O)N1CCC[C@H]1C(N)=O")
6.49

query: Recorded pKi for C[C@@H](NC(=O)[C@@H](N)Cc1ccc(O)cc1)C(=O)N[C@@H](Cc1ccccc1)C(=O)NCC(=O)O (H-Y[dA]FG-OH) , please?
result: 5.74

* * *

biological target: UniProt P35372; assay: Agonist activity at human recombinant MOP expressed in CHO cells by calcium mobilization assay; type: functional, cell-based
Catalogue of pEC50 values
On this scale, pEC50 is minus log10 of a concentration expressed in M (mol/L).

// solved cases for pEC50 follow
>>> assayresult("Cc1cccc([C@@H]2NC(=O)[C@H](NC(=O)[C@@H](N)Cc3c(C)cc(O)cc3C)CCCCNC(=O)C[C@@H](C(N)=O)NC(=O)[C@H](c3ccccc3)NC2=O)c1")
8.53
>>> assayresult("Cc1ccccc1[C@@H]1NC(=O)[C@H](c2ccccc2)NC(=O)[C@H](NC(=O)[C@@H](N)Cc2c(C)cc(O)cc2C)CCCCNC(=O)C[C@@H](C(N)=O)NC1=O")
8.25
>>> assayresult("CCNC(=O)C[C@H](NC(=O)[C@H](Cc1ccccc1)NC(=O)[C@H](Cc1ccccc1)NC(=O)[C@@H](CCCCNC(=O)C[C@H](NC(=O)[C@H](Cc1ccccc1)NC(=O)[C@H](Cc1ccccc1)NC(=O)CNC(=O)[C@@H](N)Cc1ccc(O)cc1)C(N)=O)NC(=O)[C@@H](N)Cc1ccc(O)cc1)C(N)=O")
8.30
>>> assayresult("Cc1cc(O)cc(C)c1C[C@H](N)C(=O)N[C@@H]1CCCCNC(=O)C[C@@H](C(N)=O)NC(=O)[C@H](c2ccccc2)NC(=O)[C@H](c2ccccc2)NC1=O")
8.76

Let us examine a further case.
query: Recorded pEC50 for Cc1cccc([C@@H]2NC(=O)[C@H](c3ccccc3)NC(=O)[C@H](NC(=O)[C@@H](N)Cc3c(C)cc(O)cc3C)CCCCNC(=O)C[C@@H](C(N)=O)NC2=O)c1 , please?
result: 8.96

* * *

Catalogue of pKi values
target: Mu-type opioid receptor (Homo sapiens); test: Displacement of [3H]DAMGO from human MOP expressed in CHO-K1 cell membrane incubated for 60 mins by Microscint-counting analysis; type: cell membranes
On this scale, pKi is minus log10 of a concentration expressed in M (mol/L).

>>> assayresult("NC(=O)[C@@H]1CCCCNC(=O)CC[C@@H](NC(=O)[C@@H](N)Cc2ccc(O)cc2)C(=O)N[C@@H](Cc2ccccc2)C(=O)N[C@@H](Cc2ccccc2)C(=O)N1")
9.02

query: Recorded pKi for NC(=O)[C@@H]1CC(=O)NCCCC[C@@H](NC(=O)[C@@H](N)Cc2ccc(O)cc2)C(=O)N[C@@H](Cc2c[nH]c3ccccc23)C(=O)N[C@@H](Cc2ccccc2)C(=O)N1 , please?
result: 9.31

query: Recorded pKi for NC(=O)CNC(=O)[C@@H]1CCC(=O)NCCCC[C@@H](NC(=O)[C@@H](N)Cc2ccc(O)cc2)C(=O)N[C@@H](Cc2c[nH]c3ccccc23)C(=O)N[C@@H](Cc2ccccc2)C(=O)N1 , please?
result: 9.17

query: Recorded pKi for NC(=O)[C@@H]1CCC(=O)NCCCC[C@@H](NC(=O)[C@@H](N)Cc2ccc(O)cc2)C(=O)N[C@@H](Cc2c[nH]c3ccccc23)C(=O)N[C@@H](Cc2ccccc2)C(=O)N1 , please?
result: 9.20

* * *

Catalogue of Ki values
target: UniProt:P34975; assay: Displacement of [3H]diprenorphine from rat KOP stably expressed in CHO cell membrane; assay type: cell membranes
Respond with the bare value in µM.

// solved cases for Ki follow
>>> assayresult("C[C@@H]1C(=O)N[C@@H](Cc2ccccc2)C(=O)N[C@H](Cc2c[nH]c3ccccc23)C(=O)N[C@@H](Cc2ccccc2)C(=O)N1C")
0.0769
>>> assayresult("C[C@@H]1NC(=O)[C@H]2CCCN2C(=O)[C@H](Cc2ccccc2)NC(=O)[C@@H](Cc2c[nH]c3ccccc23)NC1=O")
0.167
>>> assayresult("C[C@@H]1NC(=O)[C@@H](Cc2c[nH]c3ccccc23)NC(=O)[C@H](Cc2ccccc2)NC(=O)[C@H]2CCCN2C1=O")
0.00307

query: Recorded Ki for C[C@H]1NC(=O)[C@H](Cc2ccccc2)NC(=O)[C@H]2CCCN2C(=O)[C@H](Cc2ccccc2)NC1=O , please?
result: 1.72

* * *

target: Kappa-type opioid receptor (Cavia porcellus, UniProt P41144); assay: Displacement of [3H]U69593 from guinea pig brain membrane KOP incubated for 1 hr by scintillation counter analysis; assay type: cell membranes
measuredMetric: Ki
Reply with the number, then its unit.

query: Write down the reported Ki of CC[C@@H]1CN2CC[C@]3(O)c4c(cccc4OC)NC3[C@@H]2C[C@@H]1/C(=C\OC)C(=O)OC (some centres undefined) , test system: Kappa-type opioid receptor (Cavia porcellus, UniProt P41144).
result: 0.085 µM

query: Write down the reported Ki of CC[C@@H]1CN2CC[C@]3(O)c4c(cccc4OC)N[C@@H]3[C@@H]2C[C@@H]1/C(=C\OC)C(=O)OC , test system: Kappa-type opioid receptor (Cavia porcellus, UniProt P41144).
result: 0.055 µM

query: Write down the reported Ki of CC[C@@H]1CN2CC[C@@]34OCCO[C@@]3(Nc3ccc(F)c(OC)c34)[C@@H]2C[C@@H]1/C(=C\OC)C(=O)OC , test system: Kappa-type opioid receptor (Cavia porcellus, UniProt P41144).
result: 0.018 µM

query: Write down the reported Ki of CC[C@@H]1CN2CC[C@]3(O)c4c(ccc(F)c4OC)N[C@@H]3[C@@H]2C[C@@H]1/C(=C\OC)C(=O)OC , test system: Kappa-type opioid receptor (Cavia porcellus, UniProt P41144).
result: 0.029 µM

* * *

Catalogue of pKi values
target: Delta-type opioid receptor (Mus musculus, UniProt P32300); test: Displacement of [3H]deltorphin-II from mouse spinal cord DOP measured after 60 mins by liquid scintillation counter analysis; format: tissue-based
pKi: −log10 of the molar value.

>>> assayresult("CN(CCC(=O)O)C(=O)[C@H](Cc1ccccc1)NC(=O)[C@@H](CCCNC(=N)N)NC(=O)[C@H](Cc1ccc(O)cc1)NC(=N)N")
"< 6.00"

query: Recorded pKi for N=C(N)NCCC[C@@H](NC(=O)[C@H](Cc1ccc(O)cc1)NC(=N)N)C(=O)N[C@@H](Cc1ccccc1)C(=O)NCCC(=O)O , please?
result: < 6.00

* * *

biological target: Mu-type opioid receptor (Rattus norvegicus, UniProt P33535); assay: Inhibition of Wistar rat brain membrane MOP
pIC50: −log10 of the molar value.
Think of 9 as a floor: if pIC50 stands on it or above, it is YES; beneath it, NO.

query: Would you say CCNC(=O)C[C@H](NC(=O)[C@H](Cc1ccccc1)NC(=O)[C@H](Cc1ccccc1)NC(=O)[C@@H](CCCCNC(=O)C[C@H](NC(=O)[C@H](Cc1ccccc1)NC(=O)[C@H](Cc1ccccc1)NC(=O)CNC(=O)[C@@H](N)Cc1ccc(O)cc1)C(N)=O)NC(=O)[C@@H](N)Cc1ccc(O)cc1)C(N)=O shows pIC50 at minimum 9?
result: NO
